Value source: patent US20240018140A1

# Assay Target: UniProt:Q16739
# Sequence (Q16739 whole entry): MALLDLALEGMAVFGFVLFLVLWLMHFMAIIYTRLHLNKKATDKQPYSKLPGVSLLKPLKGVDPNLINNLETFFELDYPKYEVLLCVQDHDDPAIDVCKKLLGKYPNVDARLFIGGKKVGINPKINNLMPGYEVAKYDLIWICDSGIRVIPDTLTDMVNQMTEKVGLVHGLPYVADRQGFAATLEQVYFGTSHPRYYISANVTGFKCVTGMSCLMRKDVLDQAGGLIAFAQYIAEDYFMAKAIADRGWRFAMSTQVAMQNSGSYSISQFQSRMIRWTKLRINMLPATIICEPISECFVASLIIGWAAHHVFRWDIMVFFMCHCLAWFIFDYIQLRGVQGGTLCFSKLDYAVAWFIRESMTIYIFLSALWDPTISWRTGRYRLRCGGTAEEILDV
# Measurement Protocol: UDP-Glo glucosylceramide synthase biochemical assay
# Settings: endogenous GCS in Golgi preparations from human A375 malignant melanoma skin cells; C6 ceramide and UDP-glucose substrates; 20 h incubation; UDP detected by luminescence
Measured Endpoint: EC50 (nM)
Answers are plain numbers, in nM.

Completed entries (count: 2):
CC(C)(O)C1COC(c2cn3cc(Cl)cc(-c4ccccc4OCC(F)(F)F)c3n2)=N1 (stereo not drawn) | 30
CC(C)(NC(=O)c1nc2c(-c3ccccc3OCC(F)(F)F)cccn2c1F)C(F)(F)F | 14

// switching to the query molecule
For OCC1COC(c2cn3cc(Cl)cc(-c4ccccc4OCC(F)(F)F)c3n2)=N1 (stereo not drawn) , what is its reported EC50?
7.9
